Target: T1, 人冠状病毒HKU1 N蛋白 (人冠状病毒HKU1 (HCoV-HKU1), UniProt Q5MQC6 1-441)
T1 sequence: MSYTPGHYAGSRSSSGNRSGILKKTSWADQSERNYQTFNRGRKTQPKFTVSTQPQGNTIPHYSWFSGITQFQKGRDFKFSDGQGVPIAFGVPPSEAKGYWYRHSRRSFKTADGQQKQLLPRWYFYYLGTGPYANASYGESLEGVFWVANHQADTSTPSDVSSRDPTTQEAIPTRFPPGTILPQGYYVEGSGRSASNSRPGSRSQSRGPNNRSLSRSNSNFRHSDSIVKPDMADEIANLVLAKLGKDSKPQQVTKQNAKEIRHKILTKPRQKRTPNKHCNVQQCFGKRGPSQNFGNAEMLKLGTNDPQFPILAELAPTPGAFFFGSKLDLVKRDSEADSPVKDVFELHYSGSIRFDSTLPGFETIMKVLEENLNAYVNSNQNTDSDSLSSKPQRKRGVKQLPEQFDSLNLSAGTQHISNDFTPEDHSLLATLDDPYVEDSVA
Assay: ELISA
endpoint-label: binding result

3B7抗体 (N蛋白特异性单克隆抗体3B7) (antibody, V domains shown) VH: QMQLVQSGAEVKKPGASVRVSCKVSGYSLTELPMHWVRQAPGKGLEWVGSFDPQDAETTYAQRFQGRVAMTEDTSTDTAYMELSSLRSEDTAVYYCATPAPTIVGVVIYALHIWGQGTMVTVSS VL: EIVLTQSPGTLSLSPGERATLSCRASQRVSDNSLAWYQQKPGQAPSLLIFAASIRAPGIPDRISGTGSGTDFTLTINRLEPEDFVVYFCLQYTTSPPLTFGGGTKLEIK; no binding
N83抗体 (N蛋白特异性单克隆抗体N83) (antibody, V domains shown) VH: QVQLQESGPRLVKSSETLSLTCTVSGGSISSGSYYWNWIRQPAGKGLEWIGRVYISGVTSYNPSLKSRVTISLDISKNQFSLQLTSVTAADSAVYYCARGGMAVGAPLYYYFYGMDVWGQGTTVTVSS VL: DVVMTQSPLSLPVTPGEPASISCRSSQSLLHSNGYNYVDWYLQKPGQSPQLMIYLGSNRASGVPDRFSGSGSGTHFTLKISRVEAEDVGVYYCMQALQTLSITFGQGTRLEIK; no binding
N5抗体 (N蛋白特异性单克隆抗体N5) (antibody, V domains shown) VH: QVQLVQSGAEVKKPGSSVKVSCKASGGTFSSYAIGWVRQAPGQGLEWMGAIIPIFGTTIFAQKFQGRVTITADESTTTAYMELSSLRSDDTAVYYCARGGGGVERGVILTRWFDPWGQGTLVTVSS VL: QSVLTQPPSVSAAPGQKVTLSCSGSSSNIGNNHVSWYQQLPGTAPKLLIYDNNKRPSGIPDRFSGSKSGTSATLGITGLQTGDEADYYCGTWDNSLSAGVFGGGTKLTVV; no binding
